biological target: 5HT2B receptors (Homo sapiens); construct: expressed in transfected cells; host or cells: CHO-K1 cells; assay: Human 5-HT2B functional assay in CHO-K1 cells (calcium flux, FLIPR); type: cell-based
Sequence (P41595 whole entry): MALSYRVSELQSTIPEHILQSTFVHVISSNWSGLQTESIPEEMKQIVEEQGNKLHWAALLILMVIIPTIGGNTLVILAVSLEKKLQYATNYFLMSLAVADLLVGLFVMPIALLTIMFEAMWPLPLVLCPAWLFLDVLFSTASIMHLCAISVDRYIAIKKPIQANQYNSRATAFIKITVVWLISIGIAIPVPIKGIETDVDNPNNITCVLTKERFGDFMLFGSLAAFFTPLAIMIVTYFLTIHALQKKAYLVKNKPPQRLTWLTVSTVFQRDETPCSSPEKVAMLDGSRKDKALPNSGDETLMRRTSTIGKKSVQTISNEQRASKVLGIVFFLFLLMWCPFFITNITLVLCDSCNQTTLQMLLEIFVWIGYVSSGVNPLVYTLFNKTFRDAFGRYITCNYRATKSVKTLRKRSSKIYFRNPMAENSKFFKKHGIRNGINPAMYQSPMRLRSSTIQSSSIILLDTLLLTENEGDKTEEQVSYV
# maps each entry to its EC50

Here is how some compounds turned out for EC50.
Cc1cccc2c1OCC[C@H]1CNCCN21	> 10 µM
CCc1cccc2c1OCC[C@H]1CNCCN21	> 10 µM
CN1CCN2c3cccc(F)c3NC(=O)C[C@H]2C1	> 10 µM
O=C1C[C@H]2CNCCN2c2c(F)cccc2N1	> 10 µM
CN1CCN2c3cccc(F)c3OCC[C@H]2C1	> 10 µM
O=C1C[C@@H]2CNCCN2c2c(F)cccc2N1	> 10 µM
Clc1cccc2c1OCC[C@H]1CNCCN21	> 10 µM
O=C1CC2CNCCN2c2c(F)cccc2N1 (stereo not drawn)	> 10 µM
O=C1CC2CNCCN2c2cccc(Cl)c2N1 (stereo not drawn)	> 10 µM
Cc1ccc2c(c1)NC(=O)CC1CNCCN21 (stereo not drawn)	> 10 µM

stdin: Given the compound "CN1CCN2c3ccc(Cl)cc3OCC[C@H]2C1" , write its reported EC50.
stdout: > 10 µM

stdin: Given the compound "Brc1ccc2c(c1)NCC[C@H]1CNCCN21" , write its reported EC50.
stdout: > 10 µM
